# reported GI50; entries follow
# Test system: SW-620
# run-description: NCI tumour cell line growth inhibition, 48 h
The source made the active and inactive calls. No stated cut-off is given here; in the data, active = GI50 up to about 1.1 µM and inactive = higher.

compound: N/N=C1\C(=O)N(Cc2ccccc2)C(=O)C1C(=O)NCc1ccccc1 (configuration not stated)
GI50: > 100 µM (inactive)

compound: N#CC(C#N)c1ccc(C(=O)N2CCC[C@H]2CO)cc1
GI50: > 100 µM (inactive)

compound: NC1(C(=O)O)CCCC1C(=O)O (configuration not stated)
GI50: > 100 µM (inactive)

compound: COC(=O)CNC(=O)c1cc(C)cc2c1Oc1c(cc(C)cc1C(=O)NCC(=O)OC)S2
GI50: > 100 µM (inactive)

compound: CC1=CC2(O)OC3(CC2=C(C)C)C(C)CCC13 (configuration not stated)
GI50: > 100 µM (inactive)

compound: O=C(O)[C@@H]1OCCOCCO[C@@H](C(=O)O)[C@H](C(=O)O)OCCOCCO[C@H]1C(=O)O
GI50: > 50.1 µM (inactive)

compound: O=C(Nc1cc2c(=O)[nH]c3ccccc3c2oc1=O)c1cnccn1
GI50: > 100 µM (inactive)

compound: O=C(N/N=C/c1cc(Br)ccc1O)N/N=C/c1cc(Br)ccc1O
GI50: 1.73 µM (inactive)

compound: CC/C(Cl)=N\OC(=O)Nc1ccc(C#N)cc1
GI50: 3.28 µM (inactive)

compound: CCOC(=O)C1C(=O)C=C(c2cc(C)ccc2O)CC1c1cccc(Br)c1 (configuration not stated)
GI50: 25 µM (inactive)

compound: N#Cc1cc([N+](=O)[O-])ccc1NC(=O)C(=O)C(C(=O)/C=C/c1ccccc1)C1OC(=O)c2ccccc21 (configuration not stated)
GI50: > 100 µM (inactive)

compound: COC1/C=C\OC2(C)Oc3c(C)c(O)c4c(O)c(c(/C=N\OCCCc5ccccc5)c(O)c4c3C2=O)NC(=O)/C(C)=C\C=C/C(C)C(O)C(C)C(O)C(C)C(OC(C)=O)C1C (configuration not stated)
GI50: 4.36 µM (inactive)

From: ChEMBL document CHEMBL1201862
